Reported HEK-Blue IL-18: EC50 is given for each of the following binders.
Target: T1, IL-18 receptor (IL-18Rα/IL-18Rβ) overexpressed on HEK-Blue IL-18 cells (Homo sapiens (Human), UniProt Q13478 19-541; O95256 20-599)
T1 sequence 1: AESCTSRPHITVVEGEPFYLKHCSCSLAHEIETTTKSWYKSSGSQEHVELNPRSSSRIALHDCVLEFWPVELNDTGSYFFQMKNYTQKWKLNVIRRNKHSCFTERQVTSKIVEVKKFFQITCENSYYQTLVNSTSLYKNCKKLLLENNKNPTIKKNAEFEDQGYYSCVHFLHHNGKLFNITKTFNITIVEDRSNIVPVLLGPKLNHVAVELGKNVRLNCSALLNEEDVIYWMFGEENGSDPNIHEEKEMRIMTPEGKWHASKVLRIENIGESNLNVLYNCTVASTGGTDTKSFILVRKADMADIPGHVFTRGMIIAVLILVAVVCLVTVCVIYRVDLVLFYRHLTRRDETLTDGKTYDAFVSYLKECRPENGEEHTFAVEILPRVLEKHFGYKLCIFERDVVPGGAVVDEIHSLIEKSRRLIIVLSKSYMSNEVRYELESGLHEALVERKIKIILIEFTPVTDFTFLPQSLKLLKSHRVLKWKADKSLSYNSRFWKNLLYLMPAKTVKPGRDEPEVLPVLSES
T1 sequence 2: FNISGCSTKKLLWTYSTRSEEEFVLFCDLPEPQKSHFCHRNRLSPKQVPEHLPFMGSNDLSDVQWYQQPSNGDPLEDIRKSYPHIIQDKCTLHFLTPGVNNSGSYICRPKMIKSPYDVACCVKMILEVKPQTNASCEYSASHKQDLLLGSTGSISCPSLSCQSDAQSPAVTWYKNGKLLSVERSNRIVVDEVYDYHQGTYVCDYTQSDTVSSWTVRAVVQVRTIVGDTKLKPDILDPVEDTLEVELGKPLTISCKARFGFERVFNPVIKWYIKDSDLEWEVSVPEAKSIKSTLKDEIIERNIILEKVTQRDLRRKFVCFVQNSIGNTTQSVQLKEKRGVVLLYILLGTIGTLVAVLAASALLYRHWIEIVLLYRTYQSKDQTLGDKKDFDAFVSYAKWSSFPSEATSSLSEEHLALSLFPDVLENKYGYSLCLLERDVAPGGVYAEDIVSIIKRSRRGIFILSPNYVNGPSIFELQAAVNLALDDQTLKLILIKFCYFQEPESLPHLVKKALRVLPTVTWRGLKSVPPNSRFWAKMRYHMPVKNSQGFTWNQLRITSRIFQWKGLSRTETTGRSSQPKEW
Assay: cell-based or functional assay
Just the number please, in pM, no unit attached.

- Binder: "DGL082 (bispecific antibody, V domains shown) V domain 1: EVQLVESGGGLVQPGGSLRLSCAASGSIFSINAMGWYRQAPGKQREVVATSTGGGMTNYADSVKGRFTISRDNAKNTVYLQMNSLKPEDTAVYYCNADKDPFFPGDYWGQGTQVTVSS V domain 2: QVQLVESGGGLVQAGGSLRLSCAASGRSVSENDVRWYRQAPRKQREWVAAITSSGITGYADSVRIRFTISRDLAKNTVYLQMNSLKPEDTAVYYCYMTDQYWGQGTQVTVSS"
  Measured Quantity: "HEK-Blue IL-18: EC50"
  Recorded Measurement: 12

Requested read-out: HEK-Blue IL-18: EC50. Entry: DGL068 (bispecific antibody, V domains shown) V domain 1: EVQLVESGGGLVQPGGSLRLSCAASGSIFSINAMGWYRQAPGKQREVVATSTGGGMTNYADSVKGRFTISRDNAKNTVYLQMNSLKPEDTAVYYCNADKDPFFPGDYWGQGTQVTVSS V domain 2: QVQLVESGGGLVQAGGSLRLSCVASGTFFQIHVMGWYRQAPGKQRELVAFIINNGGTRYADSVKGRFTISRDYAKNTVYLQMNSLKPEDTAVYYCNTEGTYRGRYSTDNWGQGTQVTVSS
18

Suppose we examine the binder DGL094 (bispecific antibody, V domains shown) V domain 1: QVQLVESGGGLVQAGGSLRLSCAASGRTFSSYTMGWFRQAPGKEREFVAAISWSAGRTYYADSVKGRFTISRDNAKNTVYLQMNSLKPEDTAVYFCAAEEAPDWAPIDCSGYGCLSLYDYWGQGTQVTVSS V domain 2: QVQLVESGGGLVLPGESLRLSCVVSGTIDNINSMGWYRQAPGKQRELVAYITKLGSANYADSVEGRFTISRDNAKKTVHLQMNSLKPEDTAVYYCHANERGRITWAQGTQVTVSS ; what HEK-Blue IL-18: EC50 value has been reported?
19
